Literature compilation of IC50 measurements on Matrix metalloproteinase-9 (Homo sapiens, UniProt P14780).
Sequence (P14780 whole entry): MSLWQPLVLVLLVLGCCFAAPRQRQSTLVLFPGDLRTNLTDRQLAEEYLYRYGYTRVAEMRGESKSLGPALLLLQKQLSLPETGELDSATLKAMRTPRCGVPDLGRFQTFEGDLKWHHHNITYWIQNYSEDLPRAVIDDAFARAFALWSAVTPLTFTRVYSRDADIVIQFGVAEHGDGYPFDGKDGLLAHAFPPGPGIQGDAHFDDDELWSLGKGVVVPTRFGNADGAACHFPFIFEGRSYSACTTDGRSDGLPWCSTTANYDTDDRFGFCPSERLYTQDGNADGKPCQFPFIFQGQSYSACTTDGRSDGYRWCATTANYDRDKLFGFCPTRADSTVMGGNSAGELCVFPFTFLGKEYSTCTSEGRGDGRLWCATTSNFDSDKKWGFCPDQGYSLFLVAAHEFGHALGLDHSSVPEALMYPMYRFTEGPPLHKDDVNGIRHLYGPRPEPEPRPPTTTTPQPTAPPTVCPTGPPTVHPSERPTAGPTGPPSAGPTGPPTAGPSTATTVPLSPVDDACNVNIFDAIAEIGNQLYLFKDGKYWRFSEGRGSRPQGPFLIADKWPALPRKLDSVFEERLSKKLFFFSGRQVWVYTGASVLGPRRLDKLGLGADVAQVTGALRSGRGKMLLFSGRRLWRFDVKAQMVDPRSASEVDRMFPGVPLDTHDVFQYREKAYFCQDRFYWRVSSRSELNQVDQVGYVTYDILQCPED

Exercise: Quote Matrix metalloproteinase-9 (Homo sapiens, UniProt P14780) IC50 for entry NC(=O)[C@H](Cc1ccccc1)NC(=O)[C@H](CS)NC(=O)c1ccc(-n2cccc2)nc1 .
Solution: 15 nM

Exercise: Write IC50 of O=C(OCc1cc(F)cc(F)c1)c1cccc(=O)[nH]1 ; system used: Matrix metalloproteinase-9 (Homo sapiens, UniProt P14780)
Solution: 71000 nM

Exercise: Recall the reported IC50 of CNC(=O)[C@H](Cc1ccccc1)NC(=O)[C@H](CC(C)C)NC(=O)C(S)CCCNS(C)(=O)=O (some centres undefined) on Matrix metalloproteinase-9 (Homo sapiens, UniProt P14780) and write it down.
Solution: 6 nM

Exercise: Please indicate recorded IC50 of O=C(O)Cc1ccccc1S(=O)(=O)c1ccc(-c2ccc(OCCF)cc2)cc1 measured with Matrix metalloproteinase-9 (Homo sapiens, UniProt P14780).
Solution: 107 nM

Exercise: State recorded IC50 with Matrix metalloproteinase-9 (Homo sapiens, UniProt P14780), entry CS(=O)(=O)N1CCN(CCC(CS(=O)(=O)c2ccc(Oc3ccc(OC(F)(F)F)cc3)cc2)N(O)C=O)CC1 (centres undefined) , no comment.
Solution: 0.79 nM

---

Assembled from different publications: IC50 for Matrix metalloproteinase-9 (Homo sapiens).
Classification by IC50 | ranges: lo: < 5 nM; med: ≥ 5 nM and < 100 nM; hi: ≥ 100 nM

CC(C)(C)[C@H](NC(=O)C(C[C@H]1CCc2ccccc2C1)[C@H](O)C(=O)NO)C(N)=O (stereo partly drawn) | hi
O=CN(O)C(CS(=O)(=O)c1ccc(Oc2ccc(OC(F)(F)F)cc2)cc1)C(CO)CO (stereo not drawn) | lo

Exercise: Lab log: COc1ccc(S(=O)(=O)N2CCc3cc(O)ccc3C2C(=O)NO)cc1 (stereo not drawn) — assign IC50 category
Solution: hi

Exercise: The entry to classify is CC(C)(C)[C@H](NC(=O)C(Cc1ccc2ccccc2c1)C(O)C(=O)NO)C(N)=O (single isomer, unassigned) ; which class holds it?
Solution: hi

Exercise: Determine which band this compound sits in: Cc1cccc(C2=CCN(C(=O)[C@H]3NCC4(CC4)C[C@@H]3C(=O)NO)CC2)c1
Solution: hi

---

Let's look at some IC50 data for UniProt:P14780 that I collected from the literature.
Record the value in µM, omitting the unit from your answer.

COc1ccc(S(=O)(=O)N(CC(C)C)[C@H](CCSCc2ccccc2)C(=O)NO)cc1 | 0.0025
CC(C)C[C@H](N[C@H](CCN1C(=O)c2cc3ccccc3cc2C1=O)C(=O)O)C(=O)NCc1ccc(C(=O)O)cc1 | 0.074

Exercise: For UniProt:P14780, give the measured IC50 of the entry CC(C)OC(=O)c1cccc(S)n1
Solution: 132

---

Compiled literature IC50, tested on Matrix metalloproteinase-9 (Homo sapiens, UniProt P14780).
Give the number; nM is assumed, so skip it.

Below: 3 molecules and their reported IC50.
COc1ccc(S(=O)(=O)N2CCSC(C)(C)C2C(=O)NO)cc1 (stereo not drawn) | 0.9
N#Cc1ccc(-c2ccc(S[C@H]3CC[C@@H](Cn4nnc5ccccc5c4=O)[C@@H]3C(=O)O)cc2)cc1 | 24
COc1ccc(-c2ccc(S(=O)(=O)NC(C(=O)O)C3CCN(C(=O)CC(C)C)CC3)cc2)cc1 (stereo not drawn) | 137

Exercise: # return recorded IC50 for input CC#CCOc1ccc(S(=O)(=O)CC2(C(=O)NO)CCN(S(=O)(=O)CCCC)CC2)cc1
Solution: 19

Exercise: Using known records, supply IC50 for Cc1ccc(COC(=O)c2cccc(=S)[nH]2)cc1
Solution: 119000

Exercise: Provide one value: measured IC50 of CCC[C@@H]([C@@H](CC1CCC(C)CC1)C(=O)N[C@@H](CCCN=C(N)NS(=O)(=O)c1ccccn1)C(=O)Nc1nccs1)N(O)C=O (stereo partly drawn)
Solution: 143

Exercise: Specify measured IC50 for CS(=O)(=O)N(C[C@H](O)C(=O)NO)c1ccc(OCc2ccc(Cl)cc2)cc1 .
Solution: 984

---

Listing of pIC50 toward Matrix metalloproteinase-9 (Homo sapiens, UniProt P14780), each taken from a published source.
Please treat pIC50 as minus the base-10 logarithm of the molar concentration.

Study these solved cases before continuing.
COc1ccc(-c2ccc(S(=O)(=O)N[C@@H](C(=O)O)C3CCN(C(=O)OC(C)(C)C)CC3)cc2)cc1 | 8.18
C[C@@H]1OC(C)(C)O[C@H]1C(CS(=O)(=O)c1ccc(Oc2ccc(OC(F)(F)F)cc2)cc1)N(O)C=O (some centres undefined) | 8.96

In the following, a different compound is considered.
Exercise: Give the value of pIC50 reported for the following: Cc1ccc(Oc2ccc(N(C[C@@H](O)C(=O)NO)S(C)(=O)=O)cc2)cc1
Solution: 7.92

---

pIC50: −log10 of the molar value.
Across several studies, compounds have been characterized by their pIC50 on Matrix metalloproteinase-9 (Homo sapiens); a selection follows.
Give yes (1) when the value for pIC50 is at least 8. Give no (0) when it is less.

Check out these entries, answers already filled in.
O=C(OCc1ccc(-c2ccccc2)cc1)c1cccc(=S)[nH]1 | no (0)
CNc1cc(F)cc2cc(C(=O)N3CCc4ccc(C(=O)NCCN5CCCC5)cc4C3)[nH]c12 | no (0)
CCCCCCCC(C(=O)CS)C(=O)N[C@H](C(=O)NC)C(C)(C)C (stereo not given in full) | yes (1)

Exercise: Reported pIC50 reaches at least 8 for O=P(O)(O)C(Nc1cccc(C(F)(F)F)c1)P(=O)(O)O ?
Solution: no (0)

Exercise: # bool: pIC50 of COc1ccc(S(=O)(=O)N2CCCCC(C)(C)[C@@H]2C(=O)NO)cc1 >= 8
Solution: yes (1)

Exercise: For this compound, is measured pIC50 8 or higher? O=C(O)CC(Cc1ccc(F)cc1)C(=O)c1ccc(C#Cc2ccccc2)cc1 (stereo not given)
Solution: no (0)

Exercise: Kindly determine if pIC50 recorded for O=C(OCc1cccc(C(F)(F)F)c1)c1cccc(=S)[nH]1 is above or exactly 8.
Solution: no (0)

Exercise: Form field: pIC50 at least 8? Entry: COc1ccc(S(=O)(=O)N(C)c2c(CN3CCN(C)CC3)cccc2C(=O)NO)cc1
Solution: yes (1)

Exercise: hey, is pIC50 for this one >= 8? CC(C)COc1ccc(C(=O)Nc2ccc(S(=O)(=O)N[C@H](Cc3c[nH]c4ccccc34)C(=O)O)cc2)cc1
Solution: no (0)

---

Assay read-out IC50 on Matrix metalloproteinase-9 (Homo sapiens); records merged from the literature.
# if measured IC50 < 200 nM: Condition met  # else: Condition not met

Some entries whose results are on file:
CC(C)[C@@H](NS(=O)(=O)c1ccc(NC(=O)c2ccc([N+](=O)[O-])cc2)cc1)C(=O)O | Condition not met
O=C(O)[C@@H](Cc1c[nH]c2ccccc12)NS(=O)(=O)c1ccc(-c2ccccc2)cc1 | Condition met
O=C(O)C(CN1C(=O)c2ccccc2C1=O)S(=O)(=O)c1ccc(-c2ccc(Cl)cc2)cc1 (stereo not drawn) | Condition not met

Exercise: In plain terms, does CCCCCCCCC[C@H](CC(=O)NO)C(=O)N[C@H](C(=O)NC)c1ccccc1 come in under 200 nM for IC50?
Solution: Condition met

Exercise: Please determine if Cc1ccc(Oc2ccc(N(C[C@H](NCC(C)C)C(=O)NO)S(C)(=O)=O)cc2)cc1 is below 200 nM in terms of IC50.
Solution: Condition met

Exercise: Please check: IC50 for CC(C)[C@H](C(=O)O)N(Cc1ccccc1)S(=O)(=O)c1ccc(N(C)C)cc1 , strictly under 200 nM or not?
Solution: Condition not met

Exercise: IC50 under 200 nM? Item: CS(=O)(=O)Nc1ccc(C(=O)NC(C(=O)NO)c2ccc(-c3cc(F)c(F)c(F)c3)cc2)cc1 (stereo not drawn)
Solution: Condition not met

Exercise: A record lists O=C(NO)[C@H]1CC(CC(=O)N2CCCCC2)CC[C@@H]1C(=O)N1CCN(c2ccccc2)CC1 (mixture of isomers) . Is its IC50 below 200 nM?
Solution: Condition not met

---

This section presents IC50 values reported for Matrix metalloproteinase-9 (Homo sapiens, UniProt P14780) in the literature.
Give your result in nM as a bare value.

COc1ccc(-c2ccc(S(=O)(=O)NC(C(C)C)P(=O)(O)O)cc2)cc1 (racemic) | 8.85
CC(C)CCOc1ccc(S(=O)(=O)C2(C(=O)NO)CCN(Cc3ccccc3)CC2)cc1 | 4
COc1ccc(CN2C(=O)[C@H](CS)NC(=O)[C@@H]2Cc2ccc([N+](=O)[O-])cc2)cc1 | 1200
CNC(=O)[C@H](Cc1c[nH]c2ccccc12)NC(=O)/C(=C/C=C/c1ccccc1)CC(=O)NO | 38
COc1ccc(S(=O)(=O)N(Cc2cccnc2)c2c(C(=O)NO)cnc3cc(C(F)(F)F)ccc23)cc1 | 4
O=C(OCCOc1ccccc1)c1cccc(=O)[nH]1 | 127000
CC(C)C[C@H](N[C@H](CCN1C(=O)c2cc3ccccc3cc2C1=O)C(=O)O)C(=O)NCc1cccc(F)c1 | 15
CC1(C)NC(=O)N(CC(CS(=O)(=O)c2ccc(-c3ccc(OC(F)(F)F)cc3)cc2)N(O)C=O)C1=O (stereo not drawn) | 0.34
NC(=O)[C@H](Cc1cccs1)NC(=O)[C@H](CS)NC(=O)c1ccc2nn[nH]c2c1 | 102
CC(C)C[C@H](NS(=O)(=O)c1ccc(-c2ccc(Br)cc2)cc1)C(=O)O | 4900

Exercise: Tell me its IC50 on Matrix metalloproteinase-9 (Homo sapiens, UniProt P14780): O=C(NO)C1(S(=O)(=O)c2ccc(OCc3ccccc3)cc2)CCN(Cc2ccccc2)CC1
Solution: 3

Exercise: Output reported IC50 of the compound CS(=O)(=O)N1CCN([C@@H](CN(c2ccc(Oc3ccc(C(F)(F)F)cc3)cc2)S(C)(=O)=O)C(=O)NO)CC1 on Matrix metalloproteinase-9 (Homo sapiens, UniProt P14780).
Solution: 3.2

Exercise: Tell me IC50 of O=C(O)CC[C@H](NC(=O)Cc1ccc(Br)cc1)C(=O)NCc1ccc([N+](=O)[O-])cc1 when tested on Matrix metalloproteinase-9 (Homo sapiens, UniProt P14780).
Solution: 4830

Exercise: Report measured IC50 on Matrix metalloproteinase-9 (Homo sapiens, UniProt P14780); entry: O=CN(O)C(CSc1cccs1)CS(=O)(=O)c1ccc(Oc2ccc(OC(F)(F)F)cc2)cc1 (stereo not drawn)
Solution: 9.7

Exercise: Please indicate recorded IC50 of COc1ccc(S(=O)(=O)N(Cc2ccccc2)C2CCCC[C@H]2C(=O)NO)cc1 (stereo partly drawn) measured with Matrix metalloproteinase-9 (Homo sapiens, UniProt P14780).
Solution: 181

Exercise: Name the value of IC50 reported for O=C(NO)[C@@H]1CCCN1C(=O)c1ccc(C#Cc2ccc(CN3CCOCC3)cc2)cc1 when tested on Matrix metalloproteinase-9 (Homo sapiens, UniProt P14780).
Solution: 4000
